# target: Kdn(a2-3)Gal(b1-4)Glc
# assay_info: glycan array binding signal (z-score within array); higher = stronger binding
# measurement_parameters: glycan notation: IUPAC condensed, linker removed
This excerpt belongs to a sample that is enriched for the strongest signals.
Quick reference for glycan array binding signal (z-score) among some binders

[
  {
    "binder": "Gal-9-hFc (Mus musculus), O08573-2 (protein) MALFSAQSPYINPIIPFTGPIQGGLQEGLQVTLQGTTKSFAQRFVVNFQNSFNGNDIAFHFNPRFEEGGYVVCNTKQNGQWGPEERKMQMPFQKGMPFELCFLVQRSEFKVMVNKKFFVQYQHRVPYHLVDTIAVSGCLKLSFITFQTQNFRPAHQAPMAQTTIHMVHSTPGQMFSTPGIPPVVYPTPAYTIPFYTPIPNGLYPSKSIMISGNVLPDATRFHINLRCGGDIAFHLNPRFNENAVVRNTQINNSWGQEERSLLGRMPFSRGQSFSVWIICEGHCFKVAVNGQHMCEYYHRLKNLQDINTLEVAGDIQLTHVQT",
    "glycan array binding signal (z-score)": 2.38
  },
  {
    "binder": "HPAIIITrx (Helix pomatia), Q1KM18 (protein) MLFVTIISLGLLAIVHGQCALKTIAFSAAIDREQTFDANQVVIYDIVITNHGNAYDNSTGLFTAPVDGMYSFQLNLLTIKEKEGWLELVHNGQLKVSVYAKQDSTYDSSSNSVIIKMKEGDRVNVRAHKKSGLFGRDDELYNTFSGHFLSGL",
    "glycan array binding signal (z-score)": 0.214
  },
  {
    "binder": "SalT (Orysata sativa) (protein) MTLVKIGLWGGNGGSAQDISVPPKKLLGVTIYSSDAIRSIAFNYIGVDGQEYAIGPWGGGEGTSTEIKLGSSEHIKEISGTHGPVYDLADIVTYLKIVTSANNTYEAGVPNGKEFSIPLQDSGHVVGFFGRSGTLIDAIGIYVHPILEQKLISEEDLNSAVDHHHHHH",
    "glycan array binding signal (z-score)": -0.306
  },
  {
    "binder": "CrataBL (Crataeva tapia), C0HJA4 (protein) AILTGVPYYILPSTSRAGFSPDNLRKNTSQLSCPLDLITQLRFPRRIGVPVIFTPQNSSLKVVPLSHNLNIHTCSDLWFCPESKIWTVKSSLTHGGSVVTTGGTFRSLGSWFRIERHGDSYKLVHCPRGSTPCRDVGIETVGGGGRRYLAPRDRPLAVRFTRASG",
    "glycan array binding signal (z-score)": 0.084
  }
]
